test system: E. coli ATCC25922; assay: Bacterial growth minimal inhibitory concentration (CLSI broth microdilution); format: cell-based; settings: Escherichia coli, ATCC25922; quinolone-sensitive strain; cation-adjusted Mueller-Hinton Broth
Measured attribute: MIC (µg/mL)
// units = µg/mL; emit number, no label

Lookup: MIC / E. coli ATCC25922 / `CN1C[C@@H](C#CC#Cc2cc3n(c2)C(=O)N(CC[C@](C)(C(=O)NO)S(C)(=O)=O)C3)[C@@H]1CO`
1

Find the measured MIC: item `C[C@@](CCN1Cc2cc(-c3ccc(C#CC4CN(CCO)C4)cc3F)cn2C1=O)(C(=O)NO)S(C)(=O)=O` , target or system E. coli ATCC25922.
0.5

Item `C[C@@](CCN1Cc2cc(C#CC#CC3CN(CC(F)(F)F)C3)cn2C1=O)(C(=O)NO)S(C)(=O)=O` with E. coli ATCC25922 - MIC?
0.5

Item: `C[C@@](CCN1Cc2cc(C#CC#CC3CN(C4CS(=O)(=O)C4)C3)cn2C1=O)(C(=O)NO)S(C)(=O)=O` Test system: E. coli ATCC25922 Read-out: MIC Value: ?
1

Request - read-out MIC | tested on E. coli ATCC25922 | compound `CN(CCO)C(=O)OCc1ccc(C#Cc2cc3n(c2)C(=O)N(CC[C@](C)(C(=O)NO)S(C)(=O)=O)C3)cc1`
0.5

For the record C[C@@](CCN1Cc2cc(C#Cc3ccc(CN4CC[C@H](O)[C@@H](F)C4)cc3)cn2C1=O)(C(=O)NO)S(C)(=O)=O (relative stereo) , what value of MIC is listed for E. coli ATCC25922?
0.25

Tell me reported MIC for `C[C@@](CCN1Cc2cc(C#Cc3ccc(COC(=O)N4CCC(O)CC4)cc3)cn2C1=O)(C(=O)NO)S(C)(=O)=O` , tested with E. coli ATCC25922.
0.25

###

system: E. coli ATCC25922; assay: Bacterial growth minimal inhibitory concentration (CLSI broth microdilution); type: cell-based; settings: Escherichia coli, ATCC25922; quinolone-sensitive strain; cation-adjusted Mueller-Hinton Broth
Measured attribute: MIC (µg/mL)
Please respond with the number in µg/mL and leave the unit unwritten.

Which MIC reading was recorded for the compound `CN1CCC(F)(C#CC#Cc2cc3n(c2)C(=O)N(CC[C@](C)(C(=O)NO)S(C)(=O)=O)C3)CC1` ?
0.5

I have this compound here, CN1CC[C@@](F)(C#CC#Cc2cc3n(c2)C(=O)N(CC[C@](C)(C(=O)NO)S(C)(=O)=O)C3)C1.O=C(O)C(F)(F)F (single isomer, unassigned) , and I need its recorded MIC.
0.25

Using the record for `C[C@@](CCN1Cc2cc(C#Cc3ccc(OCCS(C)(=O)=O)cc3)cn2C1=O)(C(=O)NO)S(C)(=O)=O` , report its MIC.
0.125

Which MIC is listed for `C[C@@](CCN1Cc2cc(C#CC#CC3(F)CN(C4COC4)C3)cn2C1=O)(C(=O)NO)S(C)(=O)=O` ?
0.25

Entry under review: `C[C@@](CCN1Cc2cc(C#Cc3ccc(CNC(=O)OC4CNC4)cc3)cn2C1=O)(C(=O)NO)S(C)(=O)=O` . Reported MIC?
8

Look at this compound and give its reported MIC. `C[C@@](CCN1Cc2cc(C#CC#CCOC(=O)N3CCC(O)CC3)cn2C1=O)(C(=O)NO)S(C)(=O)=O`
1
